Experiment: chemical genetic growth profiling, strain panel (AID 1159580);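 further: tested at 20 µM; growth read once vehicle control cultures reached saturation at 30 °C; 1 = growth at the plate median or of vehicle wells; lower values mean less growth of the strain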
Settings: S. cerevisiae deletion strains, growth OD, locus YKR001C, strain vps1, hits give low values
Out of some 5,500 compounds screened, about 2,000 (36%) were called active. About 18% were inconclusive and are not listed. Some of the results follow.
Exercise: state measured normalized growth for each of the compounds provided.
Reply: number alone, nothing else.

Find the recorded normalized growth belonging to `O=c1[nH]cnc2[nH]ncc12` and report it.
1.01

Find the recorded normalized growth belonging to CN(C)CCC(c1ccc(Br)cc1)c1ccccn1 (stereo unspecified) and report it.
0.964

Find the recorded normalized growth belonging to `Nc1cc(-c2ccncc2)c[nH]c1=O` and report it.
0.765

Find the recorded normalized growth belonging to `CO[C@]12C[C@@H](COC(=O)c3cncc(Br)c3)CN(C)[C@@H]1Cc1cn(C)c3cccc2c13` and report it.
1.02

Find the recorded normalized growth belonging to `COc1c(Cl)ccc(Cl)c1C(=O)O` and report it.
1.02

Find the recorded normalized growth belonging to `Nc1ccncc1` and report it.
0.931

Find the recorded normalized growth belonging to OC1=Cc2c(O)cc(O)cc2OC1(O)c1ccc(O)c(O)c1 (stereo unspecified) and report it.
1

Find the recorded normalized growth belonging to `N[C@@H]1[C@@H](O)[C@H](O)[C@@H](CO)O[C@H]1O` and report it.
0.993

Find the recorded normalized growth belonging to CC1(C)C(=O)C=C[C@@]2(C)C1CC(=O)[C@@]1(C)C3=CC(=O)O[C@@H](c4ccoc4)[C@]3(C)CCC12 (stereo partly specified) and report it.
0.98

Find the recorded normalized growth belonging to CC(=O)OCC(=O)[C@@]1(O)[C@H](OC(C)=O)CC2C3CCC4=CC(=O)C=C[C@]4(C)[C@@]3(F)[C@@H](O)C[C@@]21C (stereo partly specified) and report it.
0.999

Find the recorded normalized growth belonging to `CCCCSP(=O)(SCCCC)SCCCC` and report it.
1.01
